Experiment: determination of the log P values by HPLC on a reverse phase column (C18), EEC-Directive 79/831 Annex V.A8
experimental_endpoint: chromatographic logP
The answer should be a number; do not append a unit.

[[record]]
compound = "CCOC(=O)Nc1cc(-c2cn(CC(F)F)nc2-c2ccc(F)cc2)ccn1"
result_value = 2.45


# context switch: different compound, same chromatographic logP
Ask: # lookup: chromatographic logP of CCOC(=O)Nc1cc(-c2cn(CC3CC3(Cl)Cl)nc2-c2ccc(F)cc2)ccn1 (centres unmarked)
Reply: 3.37

---

Assay: physchem
Details: LogPA
experimental_endpoint: chromatographic logP

[[record]]
compound = "COCC(=O)Nc1cc(-c2cn(CC(F)F)nc2-c2ccc(F)cc2)ccn1"
result_value = 2.27

[[record]]
compound = "CCC(=O)Nc1cc(-c2c(-c3ccc(Cl)cc3F)nn(C)c2C(F)(F)F)ccn1"
result_value = 3.32

[[record]]
compound = "CC(C)n1cc(-c2ccnc(NC(=O)[C@H](C)O)c2)c(-c2ccc(F)cc2)n1"
result_value = 2.14

[[record]]
compound = "CCC(=O)Nc1cc(-c2cn(CCSC)nc2-c2ccc(F)cc2)ccn1"
result_value = 2.12

[[record]]
compound = "CCC(=O)Nc1cc(-c2cn(CCCl)nc2-c2ccc(F)cc2)ccn1"
result_value = 2.01


Ask: Which chromatographic logP value is on record for CC(C)C(=O)Nc1cc(-c2cn(CCC#N)nc2-c2ccc(F)cc2)ccn1 ?
Reply: 1.91

Ask: Request: Cn1cc(-c2ccnc(NC(=O)C3CCC3)c2)c(-c2ccc(F)cc2)n1
Reply: 1.93

Ask: Item: CC(C)C(=O)Nc1cc(-c2cn(CCCl)nc2-c2ccc(F)cc2)ccn1
Reply: 2.33

Ask: Please do the same for CCC(=O)Nc1nccc(-c2cn(CC(C)C)nc2-c2ccc(F)cc2)n1 as well.
Reply: 2.7

Ask: // query: CC(C)Cn1cc(-c2ccnc(N)n2)c(-c2ccc(F)cc2)n1
Reply: 1.81

Ask: What do you get for Fc1ccc(-c2nn(C3CCCCC3)cc2-c2ccncc2)cc1 ?
Reply: 1.91

---

Entries and their pest or weed control at 500 ppm values follow.
Tested on: Mycosphaerella graminicola
Experiment: Example G: in vivo test on Mycosphaerella graminicola (wheat leaf blotch disease)
Details: Zymoseptoria tritici, wheat plants sprayed 24 hours before inoculation, scored after 21 to 28 days, read-out: % Wirkungsgrad
The response must be a number in % with no trailing unit.

Some solved cases for reference:
[[record]]
compound = "CC(C)C(=O)Nc1cc(-c2cn(C(C)C)nc2-c2ccc(F)cc2)ccn1"
result_value = 98

[[record]]
compound = "COCC(=O)Nc1cc(-c2cn(C(C)C)nc2-c2ccc(F)cc2)ccn1"
result_value = 81

[[record]]
compound = "CC(C)n1cc(-c2ccncc2)c(-c2c(F)cccc2F)n1"
result_value = 88

[[record]]
compound = "CNC(=O)c1cc(-c2cn(C(C)C)nc2-c2ccc(F)cc2)ccn1"
result_value = 91


Ask: Report pest or weed control at 500 ppm for CC(C)n1cc(-c2ccnc3ccccc23)c(-c2ccc(F)cc2)n1 please.
Reply: 81

Ask: Also check Fc1cccc(F)c1-c1c(-c2ccncc2)cnn1C1CCC1
Reply: 97

Ask: Note, next up: CC(C)Cn1cc(-c2ccncc2)c(-c2c(F)cccc2F)n1
Reply: 95

Ask: Would you mind doing Fc1cccc(F)c1-c1nn(C2CCC2)cc1-c1ccncc1 as well?
Reply: 92

Ask: Could you do the same for CCOC(=O)CCn1cc(-c2ccncc2)c(-c2ccc(F)cc2)n1 , please?
Reply: 86

Ask: Moving on to the next compound: Fc1cccc(F)c1-c1nn(CC2CCCO2)cc1-c1ccncc1 (stereo not shown)
Reply: 88

Ask: Same question for Fc1cccc(F)c1-c1c(-c2ccncc2)cnn1CC1CCCO1 (stereo not shown) please.
Reply: 97

Ask: Now consider C#CCn1nc(-c2ccc(F)cc2)c(-c2ccncc2)c1C .
Reply: 93

Ask: Now the compound CC(=O)n1ccc2c(-c3cn(C4CCCCO4)nc3-c3ccc(F)cc3)ccnc21 (stereo not shown)
Reply: 97

---

Test: physchem
Conditions: pH 2.7, logP (pH 2.7)
just bin them by chromatographic logP: low bin: < 2; mid bin: ≥ 2 and < 4; high bin: ≥ 4

[[record]]
molecule = "CC1(C)OB(c2ccnc(NC(=O)C3CC3)c2)OC1(C)C [[XV-a-7]]"
assigned_category = "low bin"


Ask: Kindly identify the class of CC(C)n1nc(-c2ccc(F)cc2)c(Br)c1OC(F)F [[VI-b-2]] .
Reply: high bin

Ask: And Cc1[nH]nc(-c2ccc(F)cc2)c1-c1ccncc1 [[IX-b-1]] ?
Reply: low bin

Ask: Same lookup for COCCn1cc(-c2ccnc(N)c2)c(-c2ccc(F)cc2)n1 [[III-2]] , please.
Reply: low bin

---

Test system: Alternaria solani
Assay: Example M: in vivo test on Alternaria solani (leaf blotch disease/tomato/protective)
Conditions: 168 h, tomato, protective, 500 ppm active substance, assessed 7 days after inoculation, read-out: % Wirkungsgrad (activity level)
Labelling field: enter YES if recorded pest or weed control at 500 ppm is less than 90%. Enter NO if it equals or exceeds that cut-off.

[[record]]
compound = "C#CCNc1nccc(-c2c[nH]nc2-c2ccc(F)cc2)n1"
assigned_category = "NO"

[[record]]
compound = "CC(C)Cn1cc(-c2ccnc(NC3COC3)n2)c(-c2ccc(F)cc2)n1"
assigned_category = "YES"


Ask: Given CC(=O)n1ccc2c(-c3cn(C4CCCCO4)nc3-c3ccc(F)cc3)ccnc21 (stereo not drawn) , is recorded pest or weed control at 500 ppm strictly lower than 90%?
Reply: NO

Ask: Item: CCC(=O)Nc1cc(-c2cn(CC3CC3)nc2-c2ccc(F)cc2)ccn1
Reply: NO

Ask: Request: CCn1cc(-c2ccnc(NC(=O)CC3CCCC3)c2)c(-c2ccc(F)cc2)n1
Reply: YES

Ask: Same for CC(C)C(=O)Nc1cc(-c2cn(CC3CC3)nc2-c2ccc(F)cc2)ccn1
Reply: NO

---

Tested on: Pyrenophora teres
Experiment: Example E: in vivo test on Pyrenophora teres (barley net blotch disease)
Details: Pyrenophora teres, 288 h, barley plants sprayed 24 hours before inoculation, scored after 12 days, read-out: % Wirkungsgrad
experimental_endpoint: pest or weed control at 500 ppm (%)
All answers are understood in %, so give the number only.

Below are worked cases with known answers.
[[record]]
molecule = "CC(C)=CCn1cc(-c2ccncc2)c(-c2c(F)cccc2F)n1 [Compound 7]"
target_desc = "Pyrenophora teres"
result_value = 73

[[record]]
molecule = "CCC(=O)Nc1cc(-c2cn(C3CCCCO3)nc2-c2ccc(F)cc2)ccn1 (centres unmarked) [Compound 19]"
target_desc = "Pyrenophora teres"
result_value = 83

[[record]]
molecule = "N#Cc1ccccc1Cn1cc(-c2ccncc2)c(-c2ccc(F)cc2)n1 [Compound 136]"
target_desc = "Pyrenophora teres"
result_value = 71

[[record]]
molecule = "CC(C)Cn1ncc(-c2ccncc2)c1-c1ccc(F)cc1 [Compound 24]"
target_desc = "Pyrenophora teres"
result_value = 92

[[record]]
molecule = "CC(C)n1cc(-c2ccnc(NC(=O)C3CC3)c2)c(-c2ccc(F)cc2)n1 [Compound 86]"
target_desc = "Pyrenophora teres"
result_value = 81

[[record]]
molecule = "C=CCNc1nccc(-c2cn(CC(C)C)nc2-c2ccc(F)cc2)n1 [Compound 150]"
target_desc = "Pyrenophora teres"
result_value = 86

[[record]]
molecule = "CC(C)Cn1cc(-c2ccncc2)c(-c2ccc(F)cc2)n1 [Compound 1]"
target_desc = "Pyrenophora teres"
result_value = 96


Ask: Which pest or weed control at 500 ppm is listed for CCC(=O)Nc1cc(-c2cn(C(C)C)nc2-c2ccc(F)cc2)ccn1 [Compound 85] ?
Reply: 75

---

Assay: physchem
Conditions: LogPA
Below, each entry is listed alongside its reported chromatographic logP.

Example entries and their recorded answers appear below.
[[record]]
compound = "CCC(=O)Nc1cc(-c2c(-c3ccc(F)cc3)nn(C)c2OC(F)F)ccn1"
experimental_endpoint = "chromatographic logP"
result_value = 2.33

[[record]]
compound = "CC(CC#N)n1cc(-c2ccnc(NC(=O)CC3CC3)c2)c(-c2ccc(F)cc2)n1 (centres unmarked)"
experimental_endpoint = "chromatographic logP"
result_value = 2.28

[[record]]
compound = "CCOC(=O)Nc1cc(-c2cn(CC(C)C)nc2-c2ccc(F)c(C#N)c2)ccn1"
experimental_endpoint = "chromatographic logP"
result_value = 3.19

[[record]]
compound = "CC(C)n1cc(-c2ccnc3[nH]cnc23)c(-c2ccc(F)cc2)n1"
experimental_endpoint = "chromatographic logP"
result_value = 1.82

[[record]]
compound = "CCCn1cc(-c2ccnc(NC(=O)CC3CC3)c2)c(-c2ccc(F)cc2)n1"
experimental_endpoint = "chromatographic logP"
result_value = 2.66


Ask: chromatographic logP for COCC(=O)Nc1cc(-c2cn(C(C)c3ccccc3F)nc2-c2ccc(F)cc2)ccn1 (centres unmarked) ?
Reply: 3.5

Ask: Same read-out for CC(C)Nc1nccc(-c2cn(CC(F)F)nc2-c2ccc(F)cc2)n1 ?
Reply: 2.05

Ask: Also COCC(=O)Nc1cc(-c2cn(CC(C)C)nc2-c2ccc(F)c(C#N)c2)ccn1 ?
Reply: 2.98
